readout type: melting point

{"columns": ["compound", "melting point"],
 "data": [
  ["COC(=O)C=Cc1ccc(C=CC(=O)OC)cc1", "163 to 167 °C"]
]}

Give the measured melting point of CCOC(=O)C(C)Oc1ccc(-c2nc(-c3ccc(C)cc3C)nc(-c3ccc(C)cc3C)n2)c(O)c1 (stereo not given) . 120 to 122 °C

* * *

melting point listing for selected compounds.

{"columns": ["compound", "melting point"],
 "data": [
  ["COc1ccc(-c2cc3ccccc3[nH]2)cc1NCc1cccc([N+](=O)[O-])c1", "160 to 162 °C"],
  ["CN(C)C(=O)Nc1nsnc1-c1c(Cl)cccc1Cl", "100 to 103 °C"],
  ["CC(C)(C)c1cc(C(=O)NCCOC(=O)c2cc(C(C)(C)C)c(O)c(C(C)(C)C)c2)cc(C(C)(C)C)c1O", "185 to 187 °C"],
  ["COc1ccc(C(=O)Cn2c(-n3ccc(N)n3)nc3ccccc32)cc1", "136 to 140 °C"],
  ["CCOc1cc(N(CC)CC)ccc1C1(c2ccc(N(C)C)cc2N(C)C)OC(=O)c2ccccc21 (centres undefined)", "146 to 150 °C"],
  ["C=COC(=O)NC1Cc2ccc(-c3ccc(=O)[nH]n3)cc2C1 (centres undefined)", "205 to 206 °C"],
  ["Cc1c(CO)cc(-c2ccc(S(C)(=O)=O)cc2)n1-c1ccc(F)cc1", "140 to 142 °C"],
  ["CS(=O)(=O)NCCCCn1c(-c2ccccc2)nc2c(N)nc3ccccc3c21", "234 to 235 °C"],
  ["CN1C(=O)N(CC(COc2ccc(-c3cccc(C#N)c3)cc2)N(O)C=O)C(=O)C1(C)C (centres undefined)", "130 to 132 °C"],
  ["COc1ccc2[nH]nc(N3CCN(CCCn4c(=O)[nH]c5ccccc54)CC3)c2c1", "195 to 197 °C"]
]}

Look at this compound and give its reported melting point. COc1ccccc1-c1nc(CC(=O)O)cs1 104 to 105 °C

Give the measured melting point of COc1cc2c3ccc(OC)c(OC)c3n(Cc3ccc(C#N)cc3)c2cc1OC . 147 to 148 °C
